Overview of reported TL1A Binding Level (Early) across a group of binders:
Assayed System: T1, human TL1A extracellular domain with N-terminal HIS and FLAG tag (human, UniProt O95150 72-251)
T1 construct: the whole entry is named
T1 sequence: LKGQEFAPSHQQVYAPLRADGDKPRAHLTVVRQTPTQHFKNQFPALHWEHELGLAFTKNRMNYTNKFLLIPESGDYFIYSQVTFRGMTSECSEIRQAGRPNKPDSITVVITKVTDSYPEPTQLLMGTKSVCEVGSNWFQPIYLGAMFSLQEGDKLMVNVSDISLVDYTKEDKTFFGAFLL
Protocol Description: SPR Run 4, purified Ab captured on Protein A, TL1A 5 ug/mL, timepoint 44
// return numeric value only (unit: RU, not printed)

[Q] # return recorded TL1A Binding Level (Early) for input 320-368 (antibody, human IgG1, name in Kabat numbering, V domains shown, human IgG1, lambda) VH: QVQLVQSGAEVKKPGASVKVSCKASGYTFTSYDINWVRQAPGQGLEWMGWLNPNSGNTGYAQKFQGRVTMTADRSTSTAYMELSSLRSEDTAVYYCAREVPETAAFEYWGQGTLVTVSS VL: QSVLTQPPSVSGAPGQRVTISCTSSSSDIGAGLGVHWYQQLPGTAPKLLIEGYYNRPSGVPDRFSGSKSGTSASLTITGLLPEDEGDYYCQSYDGTLKALFGGGTKLTVLG
[A] 50
